# test_method_notes: physchem
# measurement_context: DMSO
readout: solubility (µM)
Enter your answer as a number in µM; do not include the unit.

Would you please look over these solved cases?
compound	solubility [µM]
CCCNC(=O)c1nnc2c(CC(C)C)cccc2c1N	4.6
COc1ccc(OC)c(-c2c(F)ccc3c(N)c4c(nc23)CN(C2CC2)C4=O)c1	1
COc1ccc(OC)c(-c2cccc3c(N)c4c(nc23)CN(C2CCC2)C4=O)c1	2.3
CCN1Cc2nc3c(-c4cc(OC)ccc4OC)c(F)ccc3c(N)c2C1=O	0.3
COc1ccc(OC)c(-c2c(F)ccc3c(N)c(C(=O)NC4CC4)nnc23)c1	8.8
CCCNC(=O)c1nnc2c(-c3cc(OC)ccc3OC)c(F)ccc2c1N	3.3
CCCNC(=O)c1nnc2c(-c3cc(OC)ccc3OC)cccc2c1N	3.9
CNC(=O)c1nnc2c(-c3cc(OC)ccc3OC)cccc2c1N	2.6

Requested field: solubility. Item: CCCNC(=O)c1nnc2c(-c3cccc(C)c3)cccc2c1N
8

Next up: COc1ccc(OC)c(-c2cccc3c(N)c4c(nc23)CN(C)C4=O)c1
0.8

Repeat for the following compound: COc1ccc(OC)c(-c2c(F)ccc3c(N)c4c(nc23)CN(C2CCC2)C4=O)c1
1

Follow-up item: COc1ccc(OC)c(-c2cccc3c(N)c4c(nc23)CN(C2CC2)C4=O)c1
4.9

Next: COc1cc(-c2c(F)ccc3c(N)c(C(=O)NC4CC4)nnc23)c(OC)nn1
6.2

COc1ccc(OC)c(-c2c(F)ccc3c(N)c(C(=O)NC(C)C)nnc23)c1 , same question.
7.8

Also, CCCN1Cc2nc3c(CC(C)(C)C)cccc3c(N)c2C1=O please.
3.4

Here is the next compound: CCCNC(=O)c1nnc2c(-c3cnccc3OC)cccc2c1N
28.1

And what about the compound COc1ncc(C)cc1-c1cccc2c(N)c(C(=O)NC3CC3)nnc12 ?
10.8

Also COc1ccc(-c2c(F)ccc3c(N)c(C(=O)NC4CC4)nnc23)c(OC)n1 , if possible.
2

Next compound: CCCNC(=O)c1nnc2c(-c3ccc(C)cc3C)cccc2c1N
0.8

Same read-out for CCC(C)(C)N1Cc2nc3c(-c4cc(OC)ccc4OC)cccc3c(N)c2C1=O ?
2

Same question for CCCNC(=O)c1nnc2c(-c3cc(C)cc(C)c3)cccc2c1N please.
0.8

CCCNC(=O)c1nnc2c(-c3cc(C)ccc3C)cccc2c1N , same question.
1.4

Same thing, different compound: COc1ccc(OC)c(-c2cccc3c(N)c(C(=O)NCCC(F)(F)F)nnc23)c1
2.8

Consider next the compound CCC(C)NC(=O)c1nnc2c(-c3cc(OC)ccc3OC)cccc2c1N (stereo not given) in the same way.
1.2

Next entry: COc1ccc(OC)c(-c2cccc3c(N)c(C(=O)NC4CC(C)C4)nnc23)c1 (stereo not given)
1.8

Lookup COc1ccc(OC)c(-c2cccc3c(N)c(C(=O)NC4CCC4)nnc23)c1
4.3

Proceed to CCCNC(=O)c1nnc2c(-c3ccccc3C)cccc2c1N
26.8

* * *

# test_method_notes: physchem
# measurement_context: DMSO
# binarize solubility: threshold 8 µM inclusive, high side Satisfied, low side Not satisfied

Hello, I need to know if COc1ccc(OC)c(-c2c(F)ccc3c(N)c(C(=O)NC4CCC4)nnc23)c1 has measured solubility not below 8 µM. Thanks!
Not satisfied

Please give the result for COc1ccc(OC)c(-c2cccc3c(N)c(C(=O)NCCCO)nnc23)c1 too.
Satisfied

Same question, CCCNC(=O)c1nnc2c(-c3cc(C)ccc3OC)cccc2c1N this time
Satisfied

Quick one: CCN1Cc2nc3c(-c4cc(OC)ccc4OC)cccc3c(N)c2C1=O
Not satisfied

Source of measurements: ChEMBL document CHEMBL1782003
